Values from the Immune Epitope Database (IEDB)

# systemUnderTest: HLA-B*83:01
# methodNotes: IEDB peptide-MHC binding, purified MHC/competitive/fluorescence; filed as Kd, often an IC50 or EC50 that approximates it; bounds were set here for any values at or beyond the usual limits of such assays
# measurementParameters: source organism: Corynebacterium glutamicum ATCC 13032
assayReadout: Kd

Lookup: Tell me Kd reported for RIFPATHYV
Found: ≥ 5 µM

----------
# systemUnderTest: HLA-B*40:01
# methodNotes: IEDB peptide-MHC binding, purified MHC/direct/fluorescence; filed as Kd, often an IC50 or EC50 that approximates it; bounds were set here for any values at or beyond the usual limits of such assays
# measurementParameters: source organism: Mycobacterium avium 104
assayReadout: Kd

Lookup: Name the value of Kd reported for IAHVRDVVM when tested on HLA-B*40:01.
Found: ≥ 20 µM

----------
# systemUnderTest: HLA-A*31:01
# methodNotes: IEDB peptide-MHC binding, purified MHC/competitive/fluorescence; filed as Kd, often an IC50 or EC50 that approximates it; bounds were set here for any values at or beyond the usual limits of such assays
# measurementParameters: source organism: Human immunodeficiency virus 1
assayReadout: Kd (µM)
Answers are plain numbers, in µM.

Lookup: Supply reported Kd belonging to this sequence: EKLKSLYNTI
Found: 4.47

----------
# systemUnderTest: HLA-B*38:01
# methodNotes: IEDB peptide-MHC binding, purified MHC/direct/fluorescence; filed as Kd, often an IC50 or EC50 that approximates it; bounds were set here for any values at or beyond the usual limits of such assays
# measurementParameters: source organism: Yersinia pestis CA88-4125
pKd: −log10 of the molar value.
assayReadout: pKd

Lookup: Quickly give me recorded pKd for RPQLWRYRW
Found: ≤ 4.70

----------
# systemUnderTest: HLA-A*23:01
# methodNotes: IEDB peptide-MHC binding, purified MHC/competitive/radioactivity; filed as Kd, often an IC50 or EC50 that approximates it; bounds were set here for any values at or beyond the usual limits of such assays
# measurementParameters: source organism: Mammarenavirus machupoense
pKd: −log10 of the molar value.
assayReadout: pKd

Lookup: For HLA-A*23:01, give the measured pKd of the entry LCMLNNSFYY
Found: ≤ 4.53

----------
# systemUnderTest: HLA-A*03:01
# methodNotes: IEDB peptide-MHC binding, purified MHC/competitive/radioactivity; filed as Kd, often an IC50 or EC50 that approximates it; bounds were set here for any values at or beyond the usual limits of such assays
# measurementParameters: source organism: Homo sapiens
assayReadout: Kd (nM)
Numbers only, in nM.

Lookup: Using the record for KIFSEVTPK , state its measured Kd.
Found: 10

----------
# systemUnderTest: HLA-A*33:01
# methodNotes: IEDB peptide-MHC binding, purified MHC/competitive/radioactivity; filed as Kd, often an IC50 or EC50 that approximates it; bounds were set here for any values at or beyond the usual limits of such assays
# measurementParameters: source organism: Dengue virus 4 Dominica/814669/1981
assayReadout: Kd (nM)
Give bare numbers, in nM.

Lookup: Give the value of Kd reported for the following: MTLMKGASR
Found: 11.6

----------
# systemUnderTest: HLA-A*69:01
# methodNotes: IEDB peptide-MHC binding, purified MHC/direct/fluorescence; filed as Kd, often an IC50 or EC50 that approximates it; bounds were set here for any values at or beyond the usual limits of such assays
# measurementParameters: source organism: Francisella tularensis subsp. tularensis FSC198
assayReadout: Kd (nM)
Answers are plain numbers, in nM.

Lookup: Recall and state the measured Kd for SILEYAKSI .
Found: 107
